# protocolText: Plasma and tumor concentrations in Raji xenograft mice
# Assay type: in vivo
# conditions: mouse, plasma, oral; 100 mg/kg p.o. QD*5 for 3 weeks, 2 hours after the last dose; read-out: plasma concentration

compound	valueUnit	concentration at 2 h
O=C1NC[C@H](c2ccc(-c3csc(C(F)(F)F)c3)c(F)c2F)N1c1ccc2[nH]cnc2c1 [Compound 34]	µg/mL	18.6

###

# protocolText: Mouse pk profiles
# Format: in vivo
# conditions: IV (2 mg/kg)
# key: entry, value: AUC Plasma
observationType: AUC Plasma (ng·h/g)

compound	testValue
O=C1NC[C@H](c2ccc(-c3csc(C(F)(F)F)c3)c(F)c2F)N1c1ccc2[nH]cnc2c1	8869
O=C1NC[C@H](c2ccc(-c3cnc(C(F)(F)F)s3)cc2)N1c1ccc2[nH]cnc2c1	3037
O=C1NC[C@H](c2ccc(-c3csc(C(F)(F)F)c3)cc2)N1c1ccc2[nH]cnc2c1	8185
CCCOc1ccc([C@H]2CNC(=O)N2c2ccc3[nH]cnc3c2)cc1 [PQ912, reference compound]	520

###

# protocolText: Mouse pk profiles
# Assay type: in vivo
# conditions: plasma, PO (30 mg/kg) vs IV (2 mg/kg)

compound	valueUnit	bioavailability
O=C1NC[C@H](c2ccc(-c3csc(C(F)(F)F)c3)cc2)N1c1ccc2[nH]cnc2c1	%	56
O=C1NC[C@H](c2ccc(-c3cnc(C(F)(F)F)s3)cc2)N1c1ccc2[nH]cnc2c1	%	47
CCCOc1ccc([C@H]2CNC(=O)N2c2ccc3[nH]cnc3c2)cc1 [PQ912, reference compound]	%	82
O=C1NC[C@H](c2ccc(-c3csc(C(F)(F)F)c3)c(F)c2F)N1c1ccc2[nH]cnc2c1	%	43

###

# key: entry, value: IC50
# Test system: CD47
# protocolText: Flow cytometry, anti-human CD47 CC2C6 antibody binding on SK-OV-3 cell surface
# Type: cell-based
# conditions: Ovarian Cancer (SK-OV3 cells), 4 days treatment; read-out: IC50, inhibition of CC2C6 binding
observationType: IC50 (nM)

molecule	targetSystem	testValue
CCCOc1ccc([C@H]2CNC(=O)N2c2ccc3[nH]cnc3c2)cc1 [PQ912, reference compound]	CD47	150
O=C1NC[C@H](c2ccc(-c3csc(C(F)(F)F)c3)cc2)N1c1ccc2[nH]cnc2c1	CD47	200
O=C1NC[C@H](c2ccc(-c3csc(C(F)(F)F)c3)c(F)c2F)N1c1ccc2[nH]cnc2c1	CD47	190

###

# key: entry, value: AUC Plasma
# protocolText: Mouse pk profiles
# Format: in vivo
# conditions: PO (30 mg/kg)

compound	AUC Plasma / ng·h/g
O=C1NC[C@H](c2ccc(-c3cnc(C(F)(F)F)s3)cc2)N1c1ccc2[nH]cnc2c1	21170
CCCOc1ccc([C@H]2CNC(=O)N2c2ccc3[nH]cnc3c2)cc1 [PQ912, reference compound]	6359
O=C1NC[C@H](c2ccc(-c3csc(C(F)(F)F)c3)cc2)N1c1ccc2[nH]cnc2c1	68659
O=C1NC[C@H](c2ccc(-c3csc(C(F)(F)F)c3)c(F)c2F)N1c1ccc2[nH]cnc2c1	56451

###

# protocolText: Mouse pk profiles
# Type: in vivo
# conditions: plasma, PO (30 mg/kg), read-out: T1/2 (h) Plasma (converted)
# key: entry, value: half-life

compound	half-life / h
O=C1NC[C@H](c2ccc(-c3csc(C(F)(F)F)c3)cc2)N1c1ccc2[nH]cnc2c1	12.7
CCCOc1ccc([C@H]2CNC(=O)N2c2ccc3[nH]cnc3c2)cc1 [PQ912, reference compound]	2.8
O=C1NC[C@H](c2ccc(-c3cnc(C(F)(F)F)s3)cc2)N1c1ccc2[nH]cnc2c1	5.2
O=C1NC[C@H](c2ccc(-c3csc(C(F)(F)F)c3)c(F)c2F)N1c1ccc2[nH]cnc2c1	9.3

###

# key: entry, value: clearance
# protocolText: Mouse pk profiles
# Assay type: in vivo
# conditions: plasma, IV (2 mg/kg)

compound	valueUnit	clearance
O=C1NC[C@H](c2ccc(-c3csc(C(F)(F)F)c3)cc2)N1c1ccc2[nH]cnc2c1 [Compound 32]	mL/min/kg	4
CCCOc1ccc([C@H]2CNC(=O)N2c2ccc3[nH]cnc3c2)cc1 [PQ912, reference compound]	mL/min/kg	64
O=C1NC[C@H](c2ccc(-c3csc(C(F)(F)F)c3)c(F)c2F)N1c1ccc2[nH]cnc2c1 [Compound 34]	mL/min/kg	4.6
O=C1NC[C@H](c2ccc(-c3cnc(C(F)(F)F)s3)cc2)N1c1ccc2[nH]cnc2c1 [Compound 30]	mL/min/kg	12.7

###

# protocolText: Plasma and tumor concentrations in Raji xenograft mice
# Type: in vivo
# conditions: mouse, tumor, oral; 100 mg/kg p.o. QD*5 for 3 weeks, 2 hours after the last dose; read-out: tumor concentration

substanceSmiles	concentration at 2 h / ng/g
O=C1NC[C@H](c2ccc(-c3csc(C(F)(F)F)c3)c(F)c2F)N1c1ccc2[nH]cnc2c1	29700
